Overview of recorded −ΔG for various compounds
Target: Marasmius oreades lectin (MOA, cMOA) (Marasmius oreades, UniProt Q8X123)
Assay: Isothermal titration calorimetry, MOA of Example 1 (proteolyzed, clipped form, cMOA)
Assay type: binding
Details: isothermal titration calorimetry
The figure you give is taken to be in kcal/mol; do not add the unit.

Below: 4 compounds and their reported −ΔG.
• OC[C@H]1O[C@H](O[C@H]2[C@@H](O)[C@@H](CO)OC(O)[C@@H]2O)[C@H](O)[C@@H](O)[C@H]1O (stereo partly drawn) = 5.05
• CC(=O)N[C@H]1C(O)O[C@H](CO)[C@@H](O[C@@H]2O[C@H](CO)[C@H](O)[C@H](O)[C@H]2O)[C@@H]1O (stereo partly drawn) = 3.33
• CO[C@H]1O[C@H](CO)[C@H](O)[C@H](O)[C@H]1O [Me-α-Gal, Methyl α-galactopyranoside] = 2.82
• C[C@@H]1O[C@@H](O[C@H]2C(O)O[C@H](CO)[C@H](O)[C@@H]2O[C@H]2O[C@H](CO)[C@H](O)[C@H](O)[C@H]2O)[C@@H](O)[C@H](O)[C@@H]1O (stereo partly drawn) [B trisaccharide, Galα1,3[Fucα1,2]Gal] = 6.01

The recorded −ΔG for entry OC[C@H]1O[C@@H](OC[C@H]2OC(O)[C@H](O)[C@@H](O)[C@H]2O)[C@H](O)[C@@H](O)[C@H]1O (stereo partly drawn) equals 3.28

The recorded −ΔG for entry "CO[C@@H]1O[C@H](CO)[C@@H](O)[C@H](O[C@@H]2O[C@H](CO)[C@H](O)[C@H](O)[C@H]2O)[C@H]1NC(C)=O" equals 3.15

The recorded −ΔG for entry CC(=O)N[C@H]1C(O)O[C@H](CO)[C@@H](O[C@@H]2O[C@H](CO)[C@H](O)[C@H](O[C@H]3O[C@H](CO)[C@H](O)[C@H](O)[C@H]3O)[C@H]2O)[C@@H]1O (stereo partly drawn) equals 5.39

The recorded −ΔG for entry OC[C@H]1O[C@@H](O[C@H]2[C@H](O)[C@@H](O)C(O)O[C@@H]2CO)[C@H](O)[C@@H](O)[C@H]1O (stereo partly drawn) equals 3.1

The recorded −ΔG for entry CC1OC(OC2C(OC3C(CO)OC(O)C(O)C3O)OC(CO)C(O)C2O)C(O)C(O)C1O (stereo not drawn) equals 3.70

====

Target: intact native MOA (nMOA) (Marasmius oreades, UniProt Q8X123)
Sequence (Q8X123 1-293): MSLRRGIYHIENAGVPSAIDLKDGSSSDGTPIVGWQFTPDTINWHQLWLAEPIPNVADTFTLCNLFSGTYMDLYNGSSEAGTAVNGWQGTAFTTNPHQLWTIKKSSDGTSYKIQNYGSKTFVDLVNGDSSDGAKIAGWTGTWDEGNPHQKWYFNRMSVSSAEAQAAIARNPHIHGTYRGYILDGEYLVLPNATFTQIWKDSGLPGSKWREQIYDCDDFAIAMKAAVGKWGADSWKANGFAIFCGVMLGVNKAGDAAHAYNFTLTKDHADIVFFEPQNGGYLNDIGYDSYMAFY
Assay: Isothermal titration calorimetry, intact native MOA (nMOA)
Type: binding
Conditions: read-out: Ka, nMOA (converted)
Overview of recorded Kd for various compounds
The figure you give is taken to be in µM; do not add the unit.

* OC[C@H]1O[C@H](O[C@H]2[C@@H](O)[C@@H](CO)O[C@@H](O[C@H]3[C@H](O)[C@@H](O)C(O)O[C@@H]3CO)[C@@H]2O)[C@H](O)[C@@H](O)[C@H]1O (stereo partly shown) [Galα1,3Galβ1,4Glc] | 59.9
* CC(=O)N[C@H]1C(O)O[C@H](CO)[C@@H](O[C@@H]2O[C@H](CO)[C@H](O)[C@H](O)[C@H]2O)[C@@H]1O (stereo partly shown) [LacNAc, N-acetyllactosamine] | 2630
* OC[C@H]1O[C@H](O[C@H]2[C@@H](O)[C@@H](CO)OC(O)[C@@H]2O)[C@H](O)[C@@H](O)[C@H]1O (stereo partly shown) [Galα1,3Gal] | 36.6

Attention now turns to another entry.
Case CC(=O)N[C@H]1C(O)O[C@H](CO)[C@@H](O[C@@H]2O[C@H](CO)[C@H](O)[C@H](O[C@H]3O[C@H](CO)[C@H](O)[C@H](O)[C@H]3O)[C@H]2O)[C@@H]1O (stereo partly shown) [Linear B2 trisacc., Galα1,3Galβ1,4GlcNAc] , intact native MOA (nMOA) (Marasmius oreades, UniProt Q8X123), Kd recorded as 25.4
